B1: minF1; the commonest letter at each place (parent)
chain: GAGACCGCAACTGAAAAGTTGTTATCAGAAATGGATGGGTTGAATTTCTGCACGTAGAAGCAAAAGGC

- Variants of: B1
- Procedure details: fraction ligated after 30 min (ligated reads / total reads); higher = more ligase activity
- Details: with F1*subA RNA substrate (template-directed ligation), 42 °C
Output satisfied for fraction ligated not less than 0.01; output not satisfied otherwise.

# Changes, Category label
measured = [
    ("T32C A43T", "not satisfied"),
    ("A35T A44C", "not satisfied"),
    ("T25A G37C", "not satisfied"),
    ("G37A", "not satisfied"),
    ("T36C G37T", "not satisfied"),
    ("A29G A31T", "satisfied"),
    ("A24T C26A", "not satisfied"),
    ("T23C G28A", "satisfied"),
    ("T23A A27T", "satisfied"),
    ("A35G G42A", "satisfied"),
    ("T23A", "satisfied"),
    ("G33T T36C", "satisfied"),
    ("A29T A35T", "satisfied"),
    ("G28C G37C", "not satisfied"),
    ("T25C G33C", "satisfied"),
    ("A24T T36G", "satisfied"),
    ("G28A A35C", "satisfied"),
    ("A27C A43G", "satisfied"),
    ("T23G A27C", "satisfied"),
    ("G34A T36A", "satisfied"),
    ("G33A G42A", "satisfied"),
    ("T25C", "satisfied"),
    ("A24C A35C", "not satisfied"),
    ("G42A A43G", "satisfied"),
    ("A24C G33A", "satisfied"),
    ("T25G A43T", "not satisfied"),
    ("T23G A30G", "satisfied"),
    ("T25C G42A", "not satisfied"),
    ("A31G A43C", "satisfied"),
]
